- TARGET_SYSTEM: bovine beta-2 adrenoceptor (Bos taurus, UniProt Q28044)
- Sequence (Q28044 whole entry): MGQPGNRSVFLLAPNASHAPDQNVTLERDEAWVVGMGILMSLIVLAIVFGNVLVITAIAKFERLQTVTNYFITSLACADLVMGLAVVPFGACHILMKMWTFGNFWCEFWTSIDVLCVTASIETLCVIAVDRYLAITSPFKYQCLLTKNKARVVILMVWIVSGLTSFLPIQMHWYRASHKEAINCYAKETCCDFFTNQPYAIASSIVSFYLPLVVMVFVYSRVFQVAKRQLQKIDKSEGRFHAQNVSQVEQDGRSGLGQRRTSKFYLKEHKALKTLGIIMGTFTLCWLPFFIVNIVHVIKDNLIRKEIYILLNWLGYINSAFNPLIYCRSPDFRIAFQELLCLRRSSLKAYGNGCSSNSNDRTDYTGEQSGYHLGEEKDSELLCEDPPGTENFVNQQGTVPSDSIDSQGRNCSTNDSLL
- EXPERIMENT_DESCRIPTION: cAMP assay in CHO cells transfected with the bovine beta-2 adrenoceptor
- EXPERIMENTAL_CONTEXT: cAMP (DiscoveRx Hit Hunter cAMP II) in CHO cells transfected with bovine beta-2 adrenoceptor, 30 minutes with compound, 0.5 mM IBMX
The following compounds are listed with their measured EC50 values.
Please reply with the bare figure in nM and do not write the unit itself.

Consider the following illustrative entries.
COc1ccccc1CCC(C)N[C@@H]1CCn2c(=O)[nH]c3cccc(c32)[C@H]1O (mixture of isomers) [Example 20]    7.5
C[C@@H](CCc1cccc(NC(=O)C(F)(F)F)c1)N[C@@H]1CCn2c(=O)[nH]c3cccc(c32)[C@H]1O (single isomer, unassigned) [Example 57]    6.1
CC(CCc1ccccc1OC(C)C)NC1CCn2c(=O)[nH]c3cccc(c32)C1O (stereo not shown) [Example 35]    7.3

Now for another entry.
Lab note: CC(CCc1cccc(CO)c1)N[C@@H]1CCn2c(=O)[nH]c3cccc(c32)[C@H]1O (mixture of isomers) [Example 44] gave EC50 of 75.7

###

- TARGET_SYSTEM: bovine beta-2 adrenoceptor (Bos taurus)
- EXPERIMENT_DESCRIPTION: cAMP assay in CHO cells transfected with the bovine beta-2 adrenoceptor
- EXPERIMENTAL_CONTEXT: cAMP (DiscoveRx Hit Hunter cAMP II) in CHO cells transfected with bovine beta-2 adrenoceptor, 30 minutes with compound, 0.5 mM IBMX
- Method: CHO cells transfected with the bovine or porcine beta-2 adrenceptors were maintained in culture in DMEM/HAMS F12+10% FBS+2 mM glutamine+500 μg/ml geneticin (for the porcine receptor the medium was supplement with 1.5 mM HEPES) at 37° C. with a 5% CO2 atmosphere. […] Duplicate samples were run for each experimental compound and the data generated was analysed using EC50 analysis software in Graphpad Prism.
TEST_READOUT: pEC50
On this scale, pEC50 is minus log10 of a concentration expressed in M (mol/L).

C[C@H](CCc1cccc(N)c1)N[C@@H]1CCn2c(=O)[nH]c3cccc(c32)[C@H]1O (single isomer, unassigned)    7.47

For the compound CC(CCc1ccccc1O)N[C@@H]1CCn2c(=O)[nH]c3cccc(c32)[C@H]1O (mixture of isomers) [Example 6a] , the measured pEC50 on bovine beta-2 adrenoceptor (Bos taurus) was 8.82

Result for CC(CCc1ccc(OCC2CC2)cc1)N[C@@H]1CCn2c(=O)[nH]c3cccc(c32)[C@H]1O (mixture of isomers) [Example 1c] , tested on bovine beta-2 adrenoceptor (Bos taurus), pEC50: 7.91

Tested on bovine beta-2 adrenoceptor (Bos taurus), the item C[C@H](CCc1ccc(N)cc1)N[C@@H]1CCn2c(=O)[nH]c3cccc(c32)[C@H]1O (single isomer, unassigned) showed pEC50 equal to 7.52

GET /values?item= CCC(=O)Nc1cccc(CCC(C)NC2CCn3c(=O)[nH]c4cccc(c43)C2O)c1 (single isomer, unassigned) &system= bovine beta-2 adrenoceptor (Bos taurus) returns pEC50: 7.92

Result for CC(CCc1cc(F)cc(F)c1O)N[C@@H]1CCn2c(=O)[nH]c3cccc(c32)[C@H]1O (mixture of isomers) [Example 10b] , tested on bovine beta-2 adrenoceptor (Bos taurus), pEC50: 9.10

###

- TARGET_SYSTEM: porcine beta-2 adrenoceptor (Sus scrofa)
- Sequence (Q28997 whole entry): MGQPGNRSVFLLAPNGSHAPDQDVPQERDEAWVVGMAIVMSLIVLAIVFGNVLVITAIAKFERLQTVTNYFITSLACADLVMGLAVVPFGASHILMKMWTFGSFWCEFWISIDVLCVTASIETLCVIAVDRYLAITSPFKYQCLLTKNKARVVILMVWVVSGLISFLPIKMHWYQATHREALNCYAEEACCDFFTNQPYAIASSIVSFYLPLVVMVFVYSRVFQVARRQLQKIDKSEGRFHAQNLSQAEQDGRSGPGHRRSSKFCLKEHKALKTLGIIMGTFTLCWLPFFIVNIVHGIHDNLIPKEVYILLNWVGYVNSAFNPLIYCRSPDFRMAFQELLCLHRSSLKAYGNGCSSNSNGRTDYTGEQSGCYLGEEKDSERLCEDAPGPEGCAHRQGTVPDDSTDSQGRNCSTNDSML
- EXPERIMENT_DESCRIPTION: cAMP assay in CHO cells transfected with the porcine beta-2 adrenoceptor
- EXPERIMENTAL_CONTEXT: cAMP (DiscoveRx Hit Hunter cAMP II) in CHO cells transfected with porcine beta-2 adrenoceptor, 30 minutes with compound, 0.5 mM IBMX
Measured pEC50, listed per entry.
Just so you know, pEC50 here is -log10 of the concentration in molar units; reply with that number alone.

Example results:
Cc1cc(CCC(C)NC2CCn3c(=O)[nH]c4cccc(c43)C2O)cc(C)c1O (stereo not drawn) [Example 15]    7.31
CC(CCc1cc(F)c(F)cc1O)N[C@@H]1CCn2c(=O)[nH]c3cccc(c32)[C@H]1O (mixture of isomers) [Example 11a]    8.94
COc1cccc(CCC(C)N[C@@H]2CCn3c(=O)[nH]c4cccc(c43)[C@H]2O)c1O (single isomer, unassigned) [Example 8a]    6.76
COc1ccc(CCC(C)NC2CCn3c(=O)[nH]c4cccc(c43)C2O)cc1 (stereo not drawn) [Example 34]    7.52
CC(CCc1cccc(O)c1)N[C@@H]1CCn2c(=O)[nH]c3cccc(c32)[C@H]1O (mixture of isomers) [Example 43]    8.25
Cc1cccc(CCC(C)N[C@@H]2CCn3c(=O)[nH]c4cccc(c43)[C@H]2O)c1O (mixture of isomers) [Example 17]    8.52
CC(CCc1ccc(C(=O)NC2CC2)cc1)NC1CCn2c(=O)[nH]c3cccc(c32)C1O (single isomer, unassigned) [Example 64]    7.37
CC(CCc1ccc(O)cc1)N[C@@H]1CCn2c(=O)[nH]c3cccc(c32)[C@H]1O (single isomer, unassigned) [Example 2d]    8.72

Lab entry: porcine beta-2 adrenoceptor (Sus scrofa) assay, compound CC(CCc1ccc(C(F)(F)F)cc1)N[C@@H]1CCn2c(=O)[nH]c3cccc(c32)[C@H]1O (mixture of isomers) [Example 18] , pEC50 = 7.97

With porcine beta-2 adrenoceptor (Sus scrofa) as the test system, CCS(=O)(=O)Nc1ccccc1CCC(C)NC1CCn2c(=O)[nH]c3cccc(c32)C1O (single isomer, unassigned) [Example 56] showed pEC50 of 8.55

Record CC(CCc1cccc(Cl)c1O)N[C@@H]1CCn2c(=O)[nH]c3cccc(c32)[C@H]1O (single isomer, unassigned) [Example 5b] ; system porcine beta-2 adrenoceptor (Sus scrofa); pEC50 = 8.54

Summary: CC(CCc1ccccc1O)N[C@@H]1CCn2c(=O)[nH]c3cccc(c32)[C@H]1O (single isomer, unassigned) [Example 6d] , porcine beta-2 adrenoceptor (Sus scrofa), pEC50 = 6.39

###

- TARGET_SYSTEM: porcine beta-2 adrenoceptor (Sus scrofa)
- EXPERIMENT_DESCRIPTION: cAMP assay in CHO cells transfected with the porcine beta-2 adrenoceptor
- EXPERIMENTAL_CONTEXT: cAMP (DiscoveRx Hit Hunter cAMP II) in CHO cells transfected with porcine beta-2 adrenoceptor, 30 minutes with compound, 0.5 mM IBMX
- Description: CHO cells transfected with the bovine or porcine beta-2 adrenceptors were maintained in culture in DMEM/HAMS F12+10% FBS+2 mM glutamine+500 μg/ml geneticin (for the porcine receptor the medium was supplement with 1.5 mM HEPES) at 37° C. with a 5% CO2 atmosphere. […] Duplicate samples were run for each experimental compound and the data generated was analysed using EC50 analysis software in Graphpad Prism.
The label Satisfied is reserved for EC50 strictly under 4 nM; Not satisfied covers values equal to or above it.

Look over these answered cases.
CC(CCc1cc(Br)cc(Br)c1O)N[C@@H]1CCn2c(=O)[nH]c3cccc(c32)[C@H]1O (mixture of isomers)    Not satisfied
CC(CCc1ccc(O)cc1)N[C@@H]1CCn2c(=O)[nH]c3cccc(c32)[C@H]1O (single isomer, unassigned) [Example 2a]    Not satisfied
CC(CCc1ccccc1O)N[C@@H]1CCn2c(=O)[nH]c3cccc(c32)[C@H]1O (single isomer, unassigned) [Example 48]    Satisfied
CC(=O)Nc1ccccc1CCC(C)NC1CCn2c(=O)[nH]c3cccc(c32)C1O (single isomer, unassigned)    Not satisfied
CC(CCc1ccc(F)cc1O)N[C@@H]1CCn2c(=O)[nH]c3cccc(c32)[C@H]1O (mixture of isomers)    Not satisfied

We next turn to a different molecule, shown below.
query: Record CC(CCc1cc(F)cc(F)c1O)N[C@@H]1CCn2c(=O)[nH]c3cccc(c32)[C@H]1O (mixture of isomers) [Example 10b] : is its EC50 strictly below 4 nM?
result: Satisfied

###

- TARGET_SYSTEM: bovine beta-2 adrenoceptor (Bos taurus)
- EXPERIMENT_DESCRIPTION: cAMP assay in CHO cells transfected with the bovine beta-2 adrenoceptor
- EXPERIMENTAL_CONTEXT: cAMP (DiscoveRx Hit Hunter cAMP II) in CHO cells transfected with bovine beta-2 adrenoceptor, 30 minutes with compound, 0.5 mM IBMX
Note to self: use Yes only for EC50 readings below 30 nM; a reading exactly at 30 nM still gets No.

CC(CCc1cccc(Cl)c1O)N[C@@H]1CCn2c(=O)[nH]c3cccc(c32)[C@H]1O (single isomer, unassigned) [Example 5a]    No

Here is another compound to look at.
query: Does this compound meet the criterion EC50 < 30 nM? CC(CCc1cc(F)cc(Cl)c1O)N[C@@H]1CCn2c(=O)[nH]c3cccc(c32)[C@H]1O (mixture of isomers)
result: Yes
